The measured values listed here are drawn from patent US7045528B2.

molecular target: PDGFRβ (Homo sapiens); construct: expressed in transfected cells; host or cells: porcine aorta endothelial (PAE)-PDGFRβ cells; assay: PAE-PDGFRβ phosphorylation in PAE-PDGFRB cells assay; type: cell-based; conditions: PAE cells overexpressing human PDGFRβ, PDGF-BB stimulated; read-out: PAE PDGFR autophos IC50 (nM) AVG
Sequence (P09619 33-1106): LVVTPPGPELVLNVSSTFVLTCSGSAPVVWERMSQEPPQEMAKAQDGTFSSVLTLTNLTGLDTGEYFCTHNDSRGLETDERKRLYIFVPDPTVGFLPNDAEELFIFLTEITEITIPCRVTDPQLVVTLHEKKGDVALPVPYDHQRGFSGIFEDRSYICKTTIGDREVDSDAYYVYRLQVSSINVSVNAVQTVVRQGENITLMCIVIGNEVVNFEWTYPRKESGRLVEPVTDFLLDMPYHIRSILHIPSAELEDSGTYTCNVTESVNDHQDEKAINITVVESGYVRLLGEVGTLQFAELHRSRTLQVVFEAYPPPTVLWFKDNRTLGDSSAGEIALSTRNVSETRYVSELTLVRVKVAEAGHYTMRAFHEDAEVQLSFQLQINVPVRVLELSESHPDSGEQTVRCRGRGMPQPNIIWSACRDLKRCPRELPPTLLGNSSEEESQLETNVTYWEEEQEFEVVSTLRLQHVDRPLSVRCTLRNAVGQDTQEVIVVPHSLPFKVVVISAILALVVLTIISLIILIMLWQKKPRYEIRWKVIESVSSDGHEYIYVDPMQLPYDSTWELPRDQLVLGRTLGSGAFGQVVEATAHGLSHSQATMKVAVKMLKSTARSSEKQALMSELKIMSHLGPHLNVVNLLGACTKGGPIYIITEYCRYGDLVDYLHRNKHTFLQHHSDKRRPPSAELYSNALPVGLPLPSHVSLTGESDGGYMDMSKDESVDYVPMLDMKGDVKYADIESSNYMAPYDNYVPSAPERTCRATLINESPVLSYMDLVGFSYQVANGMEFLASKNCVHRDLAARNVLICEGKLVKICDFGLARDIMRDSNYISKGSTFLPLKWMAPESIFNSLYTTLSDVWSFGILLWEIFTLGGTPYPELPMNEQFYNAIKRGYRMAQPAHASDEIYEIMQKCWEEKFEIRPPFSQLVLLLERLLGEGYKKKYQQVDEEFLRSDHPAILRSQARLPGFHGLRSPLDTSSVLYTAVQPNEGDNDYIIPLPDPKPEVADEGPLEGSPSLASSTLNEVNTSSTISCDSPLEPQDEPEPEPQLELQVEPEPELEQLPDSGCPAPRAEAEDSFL
measuredProperty: IC50 (nM)

[
  {
    "molecule": "CNC(=O)c1c(C)n(C)c2cc(Oc3ccnc4cc(-c5ccncc5)sc34)ccc12 [Example 38]",
    "IC50 (nM)": 12.3
  }
]

A. CCc1sc2cc(Oc3ccnc4cc(C(=O)N5CCC5)sc34)ccc2c1C(=O)NC [Example 138]
B. CNC(=O)c1c(C)n(C)c2cc(Oc3ccnc4cc(C(=O)N5CC[C@@H](N(C)C(=O)OC(C)(C)C)C5)sc34)ccc12 [Example 34]
C. Cc1c(C(=O)NCCCO)c2ccc(Oc3ccnc4cc(C(=O)N5CCCC5)sc34)cc2n1C [Example 65]
D. Cc1oc2cc(Oc3ccnc4ccsc34)ccc2c1C(=O)NCCN1CCOCC1 [Example 103]
Prompt line: Order the items by recorded IC50; the first position goes to the largest value. Form entry: labels listed in requested order.
Response line: D, A, C, B
(D: 203 nM, A: 110 nM, C: 59 nM, B: 31.3 nM)

1. COC[C@@H]1CCCN1C(=O)c1cc2nccc(Oc3ccc4c(C(=O)NCC(C)C)c(C)oc4c3)c2s1 (stereo in doubt) [Example 85]
2. CNC(=O)c1c(C)oc2cc(Oc3ccnc4cc(C(=O)N5CCC5)sc34)ccc12 [Example 77]
Prompt line: Among 1 and 2 , whose measured IC50 is the smaller figure? Label of pick, please.
Response line: 2

a. CCc1sc2cc(Oc3ccnc4cc(C(=O)N5CC[C@@H](O)C5)sc34)ccc2c1C(=O)NC [Example 136]
b. Cc1sc2cc(Oc3ccnc4cc(C(=O)N5CCC5)sc34)ccc2c1C(=O)NCC1CC1 [Example 131]
Prompt line: When their IC50 values are compared, which is larger, a or b ? Label of pick, please.
Response line: a
(a: 609 nM, b: 97 nM)

A. CNC(=O)c1c(C)n(C)c2cc(Oc3ccnc4cc(C(=O)N5CCC5)sc34)ccc12 [Example 25]
B. Cc1c(C(=O)Nc2ccccn2)c2ccc(Oc3ccnc4cc(-c5nccs5)sc34)cc2n1C [Example 70]
Prompt line: Among A and B , whose measured IC50 is the smaller figure? Label of pick, please.
Response line: A

I. CNC(=O)c1c(C)n(C)c2cc(Oc3ccnc4cc(C(=O)N5CC[C@@H](OC)C5)sc34)ccc12 [Example 18]
II. Cc1sc2cc(Oc3ccnc4cc(C(=O)N5CCC5)sc34)ccc2c1C(=O)NC1CC1 [Example 127]
III. COC[C@@H]1CCCN1C(=O)c1cc2nccc(Oc3ccc4c(C(=O)NC(C)C)c(C)oc4c3)c2s1 [Example 82]
IV. COC[C@@H]1CCCN1C(=O)c1cc2nccc(Oc3ccc4c(C(=O)NC5CC5)c(C)sc4c3)c2s1 [Example 120]
Prompt line: Hey, quick one: sort these by IC50, low to high? Form entry: labels listed in requested order.
Response line: I, III, II, IV
(I: 32 nM, III: 53.1 nM, II: 102 nM, IV: 405 nM)

###

target: unphosphorylated VEGF-R2Δ50 (FLVK) (Homo sapiens, UniProt P35968, DEL940-989/E990V); construct: VEGF-R2Δ50 contains residues 806–939 and 990–1171; made in house; host or cells: baculovirus/insect cell system; test: VEGF-R2 coupled spectrophotometric assay, unphosphorylated VEGF-R2Δ50 (FLVK); type: biochemical; conditions: 50 nM compound; unphosphorylated VEGF-R2Δ50; read-out: FLVK (% inh @ 50 nM)
Sequence (P35968 with tags, fused parts or gaps DEL940-989/E990V limits assumed): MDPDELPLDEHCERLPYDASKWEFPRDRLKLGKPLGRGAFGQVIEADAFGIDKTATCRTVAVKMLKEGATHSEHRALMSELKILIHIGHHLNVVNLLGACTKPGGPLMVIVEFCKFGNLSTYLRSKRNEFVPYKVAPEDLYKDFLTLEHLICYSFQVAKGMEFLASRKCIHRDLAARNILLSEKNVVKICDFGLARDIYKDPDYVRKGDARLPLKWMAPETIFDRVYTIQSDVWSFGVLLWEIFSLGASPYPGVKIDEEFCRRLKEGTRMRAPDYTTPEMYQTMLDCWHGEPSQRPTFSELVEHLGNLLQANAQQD
measuredProperty: inhibition at 0.05 µM (%)

Look over these answered cases.
[
  {
    "compound": "CNC(=O)c1c(C)n(C)c2cc(Oc3ccnc4cc(-c5nc(C(C)(C)O)cs5)sc34)ccc12",
    "endpointUnit": "%",
    "inhibition at 0.05 µM": 77
  },
  {
    "compound": "Cc1c(C(=O)NCC2CC2)c2ccc(Oc3ccnc4cc(C(=O)N5CC[C@@H](O)C5)sc34)cc2n1C",
    "endpointUnit": "%",
    "inhibition at 0.05 µM": 60
  },
  {
    "compound": "CO[C@@H]1CCN(C(=O)c2cc3nccc(Oc4ccc5c(C(=O)NCC6CC6)c(C)oc5c4)c3s2)C1",
    "endpointUnit": "%",
    "inhibition at 0.05 µM": 94
  },
  {
    "compound": "CNC(=O)c1c(C)n(C)c2cc(Oc3ccnc4cc(C(=O)N5CCC(CNC(=O)OC(C)(C)C)C5)sc34)ccc12 (centres unmarked)",
    "endpointUnit": "%",
    "inhibition at 0.05 µM": 87
  },
  {
    "compound": "Cc1oc2cc(Oc3ccnc4ccsc34)ccc2c1C(=O)NCCCN1CCOCC1",
    "endpointUnit": "%",
    "inhibition at 0.05 µM": 91
  }
]

a. CNC(=O)c1c(C)sc2cc(Oc3ccnc4cc(CN5CCCC5)sc34)ccc12
b. Cc1c(C(=O)NCC2CC2)c2ccc(Oc3ccnc4cc(-c5nc(C(C)(C)O)cs5)sc34)cc2n1C
Prompt line: Among a and b , whose measured inhibition at 0.05 µM is the smaller figure? Label of pick, please.
Response line: a
(a: 4%, b: 63%)

P. CCCCNC(=O)c1c(C)n(C)c2cc(Oc3ccnc4cc(-c5nccs5)sc34)ccc12
Q. CNC(=O)c1cn(C)c2cc(Oc3ccnc4cc(-c5nccn5C)sc34)ccc12
Prompt line: When their inhibition at 0.05 µM values are compared, which is larger, P or Q ? Label of pick, please.
Response line: P

###

target: unphosphorylated VEGF-R2Δ50 (FLVK) (Homo sapiens, UniProt P35968, DEL940-989/E990V); construct: VEGF-R2Δ50 contains residues 806–939 and 990–1171; made in house; host or cells: baculovirus/insect cell system; assay: VEGF-R2 coupled spectrophotometric assay, unphosphorylated VEGF-R2Δ50 (FLVK); assay type: biochemical; conditions: 50 nM compound; unphosphorylated VEGF-R2Δ50; read-out: FLVK (% inh @ 50 nM)
measuredProperty: inhibition at 0.05 µM (%)

[
  {
    "compound": "CCC(=O)c1cc2nccc(Oc3ccc4c(C(=O)NC)c(C)n(C)c4c3)c2s1",
    "measuredProperty": "inhibition at 0.05 µM",
    "result": 34
  },
  {
    "compound": "Cc1c(C(=O)NCC(C)C)c2ccc(Oc3ccnc4cc(-c5nccs5)sc34)cc2n1C",
    "measuredProperty": "inhibition at 0.05 µM",
    "result": 58
  },
  {
    "compound": "Cc1sc2cc(Oc3ccnc4cc(-c5nc(CO)cs5)sc34)ccc2c1C(=O)NCC1CC1",
    "measuredProperty": "inhibition at 0.05 µM",
    "result": 95
  },
  {
    "compound": "CNC(=O)c1c(C)n(C)c2cc(Oc3ccnc4cc(C(=O)N(C)CCN(C)C)sc34)ccc12",
    "measuredProperty": "inhibition at 0.05 µM",
    "result": 6
  },
  {
    "compound": "CNC(=O)c1c(C)n(C)c2cc(Oc3ccnc4cc(C(=O)N5CCC(CN)C5)sc34)ccc12 (centres unmarked)",
    "measuredProperty": "inhibition at 0.05 µM",
    "result": 64
  }
]

P. CNC(=O)c1c(C)n(C)c2cc(Oc3ccnc4cc(C(=O)N5CC[C@@H](OC)C5)sc34)ccc12
Q. CNC(=O)c1c(C)n(C)c2cc(Oc3ccnc4cc(-c5ncccn5)sc34)ccc12
Prompt line: Among P and Q , whose measured inhibition at 0.05 µM is the smaller figure? Label of pick, please.
Response line: Q

###

molecular target: unphosphorylated VEGF-R2Δ50 (FLVK) (Homo sapiens, UniProt P35968, DEL940-989/E990V); construct: VEGF-R2Δ50 contains residues 806–939 and 990–1171; experiment: VEGF-R2 coupled spectrophotometric assay, unphosphorylated VEGF-R2Δ50 (FLVK); settings: unphosphorylated VEGF-R2Δ50
pKi: −log10 of the molar value.
measuredProperty: pKi

[
  {
    "lineNotation": "CO[C@@H]1CCN(C(=O)c2cc3nccc(Oc4ccc5c(C(=O)NC6CC6)c(C)oc5c4)c3s2)C1",
    "measuredProperty": "pKi",
    "result": 9.38
  },
  {
    "lineNotation": "Cc1oc2cc(Oc3ccnc4cc(-c5nccn5C)sc34)ccc2c1C(=O)NCC(C)C",
    "measuredProperty": "pKi",
    "result": 9.24
  }
]

P. CCc1oc2cc(Oc3ccnc4cc(C(=O)N5CCC5)sc34)ccc2c1C(=O)NC
Q. CNC(=O)c1c(C)n(C)c2cc(Oc3ccnc4cc(C(=O)N5CC[C@@H](O)C5)sc34)ccc12
R. Cc1oc2cc(Oc3ccnc4ccsc34)ccc2c1C(=O)NCc1ccncc1
Prompt line: Order the items by recorded pKi; the first position goes to the largest value. Form entry: labels listed in requested order.
Response line: P, Q, R
